Study target: Cytochrome P450 3A4 (Homo sapiens);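 note: confirmatory qHTS run detecting inhibitors and substrates of CYP3A4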
Sequence (P08684 whole entry): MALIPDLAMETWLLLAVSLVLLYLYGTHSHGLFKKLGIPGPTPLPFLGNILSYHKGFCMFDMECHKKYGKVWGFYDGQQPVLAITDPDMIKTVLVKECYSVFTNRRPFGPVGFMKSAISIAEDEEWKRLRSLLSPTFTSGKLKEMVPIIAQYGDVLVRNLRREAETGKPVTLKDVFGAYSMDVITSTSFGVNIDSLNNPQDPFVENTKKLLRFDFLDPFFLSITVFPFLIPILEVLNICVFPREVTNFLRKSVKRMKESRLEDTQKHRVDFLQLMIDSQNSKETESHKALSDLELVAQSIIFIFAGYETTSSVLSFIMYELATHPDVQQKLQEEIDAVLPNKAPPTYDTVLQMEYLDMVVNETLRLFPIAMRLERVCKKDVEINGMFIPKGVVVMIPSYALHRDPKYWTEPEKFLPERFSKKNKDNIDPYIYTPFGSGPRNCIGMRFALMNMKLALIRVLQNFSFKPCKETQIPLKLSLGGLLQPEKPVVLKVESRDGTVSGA
Setup conditions: Potency
AC50 listing for selected compounds.

| Compound | AC50 |
| --- | --- |
| C[C@@]12CCC(O)C[C@H]1CCC1C2CC[C@]2(C)C(=O)CCC12 (stereo not given in full) | 15.8 µM (inconclusive) |
| COc1cc(OC)c2c(=O)c(-c3ccccc3)c(C)oc2c1OC | 20 µM (inconclusive) |
| CCC1=C2CC[C@H]3C(=O)N(CC)C(=O)[C@H]3[C@H]2[C@@]2(C)/C(=N/CC(=O)OC)OC(=O)N2C1=O | 15.8 µM (inconclusive) |
| COC(=O)CNC(=O)C1(CC(C)C)C=CCN1C(=O)c1ccccc1 (stereo not given) | 20 µM (inconclusive) |
| O=C1OC(C2=CCCCC2)=NC12CC2 | 5.01 µM (inconclusive) |

###

EC50 listing for selected compounds.
Study target: Luciferin 4-monooxygenase (Photinus pyralis, UniProt P08659)
Sequence (P08659 whole entry): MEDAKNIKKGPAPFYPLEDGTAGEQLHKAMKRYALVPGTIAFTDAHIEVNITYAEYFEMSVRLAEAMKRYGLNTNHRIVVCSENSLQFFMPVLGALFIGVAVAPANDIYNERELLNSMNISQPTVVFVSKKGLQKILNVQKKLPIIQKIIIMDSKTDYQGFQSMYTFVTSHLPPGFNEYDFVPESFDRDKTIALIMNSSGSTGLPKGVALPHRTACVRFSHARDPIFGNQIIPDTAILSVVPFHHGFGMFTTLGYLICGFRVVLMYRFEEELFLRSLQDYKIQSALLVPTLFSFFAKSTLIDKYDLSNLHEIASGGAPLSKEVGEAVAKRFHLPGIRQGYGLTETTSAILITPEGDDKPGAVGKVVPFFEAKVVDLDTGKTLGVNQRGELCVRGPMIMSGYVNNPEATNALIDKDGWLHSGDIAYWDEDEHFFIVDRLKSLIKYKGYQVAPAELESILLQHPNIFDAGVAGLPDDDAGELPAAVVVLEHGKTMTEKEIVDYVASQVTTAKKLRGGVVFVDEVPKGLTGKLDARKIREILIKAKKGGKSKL
Procedure summary: inhibition of purified Photinus pyralis luciferase – biochemical, luminescence, dose response (AID 1891)
The source made the active and inactive calls.

| Compound | Study target | EC50 |
| --- | --- | --- |
| CC(NC(=O)CCc1nc2cc(S(=O)(=O)N3CCOCC3)ccc2n1C)c1ccc(S(N)(=O)=O)cc1 (stereo unspecified) | Luciferin 4-monooxygenase (Photinus pyralis, UniProt P08659) | > 112 µM (not active) |
| COc1ccc(/C=N/Nc2nc3ccccc3s2)cc1O | Luciferin 4-monooxygenase (Photinus pyralis, UniProt P08659) | 0.947 µM (active) |
| C/C(=N\NC(=O)c1ccc2c(c1)OCCO2)c1ccccc1 | Luciferin 4-monooxygenase (Photinus pyralis, UniProt P08659) | 12.8 µM (active) |
| COc1cccc(/C=N/Nc2ncccc2[N+](=O)[O-])c1OC | Luciferin 4-monooxygenase (Photinus pyralis, UniProt P08659) | 5.27 µM (active) |
| CCc1nc2scc(-c3cccs3)c2c(=O)o1 | Luciferin 4-monooxygenase (Photinus pyralis, UniProt P08659) | > 112 µM (not active) |
| O=c1c2ccccc2cnn1-c1nc2ccccc2[nH]1 | Luciferin 4-monooxygenase (Photinus pyralis, UniProt P08659) | 1.16 µM (active) |

###

IC50 listing for selected molecules.
Study target: 26S proteasome non-ATPase regulatory subunit 14 (Homo sapiens)
Sequence (O00487 whole entry): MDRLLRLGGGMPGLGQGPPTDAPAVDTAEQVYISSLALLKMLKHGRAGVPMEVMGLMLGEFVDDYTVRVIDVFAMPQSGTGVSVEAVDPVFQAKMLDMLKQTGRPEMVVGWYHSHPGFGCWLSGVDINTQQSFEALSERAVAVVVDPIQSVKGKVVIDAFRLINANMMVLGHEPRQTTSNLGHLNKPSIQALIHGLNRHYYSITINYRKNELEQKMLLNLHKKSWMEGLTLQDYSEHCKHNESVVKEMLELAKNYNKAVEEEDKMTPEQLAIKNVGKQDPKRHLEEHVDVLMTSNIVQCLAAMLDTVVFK
Procedure summary: inhibition of proteasome subunit RPN11 – biochemical, fluorescence polarization, uHTS hits, confirmation (AID 602368)
Format: functional
The source made the active and inactive calls.

| Smiles record | IC50 |
| --- | --- |
| CCc1ccc(-c2cc(C(=O)NCc3ccco3)c3ccccc3n2)s1 | 40.7 µM (active) |
| N#Cc1ccc(-c2ccc(OCC(=O)NCC(=O)Nc3ccc(F)c(F)c3F)cc2)cc1 | 12.7 µM (active) |
| COc1cc(/C=C/c2nc(O)c3ccccc3n2)cc(Br)c1O | 0.914 µM (active) |
| O=C(O)c1ccc(COc2ccccc2C=C2C(=O)c3ccccc3C2=O)cc1 | 17.1 µM (active) |

###

Activity calls are given as the source filed them.
Entries with their measured AC50, system Cytochrome P450 2D6 (Homo sapiens, UniProt P10635):

| Compound | AC50 |
| --- | --- |
| O=C(CCC1CCCCC1)Nc1c2c(nn1-c1ccc(F)cc1)CS(=O)(=O)C2 | 11.2 µM (inconclusive) |
| CS(=O)(=O)O.Cc1ccc(N(CC2=NCCN2)c2cccc(O)c2)cc1 [PHENTOLAMINE MESYLATE] | 3.16 µM (active) |
| O=C(NCc1ccc2c(c1)OCO2)C1CC(=O)N(C2CCCC2)C1 (centres undefined) | 12.6 µM (inconclusive) |
| COC(=O)[C@@]1(Cc2ccc(F)cc2)[C@H]2c3cc(C(=O)N(C)C)n(Cc4ccc(Cl)c(C(F)(F)F)c4)c3C[C@H]2CN1C(=O)c1ccccc1 | 6.31 µM (inconclusive) |

###

Study target: RNA-binding protein pos-1 (Caenorhabditis elegans, UniProt G5EF15)
Sequence (G5EF15 whole entry, the tested form may be a part): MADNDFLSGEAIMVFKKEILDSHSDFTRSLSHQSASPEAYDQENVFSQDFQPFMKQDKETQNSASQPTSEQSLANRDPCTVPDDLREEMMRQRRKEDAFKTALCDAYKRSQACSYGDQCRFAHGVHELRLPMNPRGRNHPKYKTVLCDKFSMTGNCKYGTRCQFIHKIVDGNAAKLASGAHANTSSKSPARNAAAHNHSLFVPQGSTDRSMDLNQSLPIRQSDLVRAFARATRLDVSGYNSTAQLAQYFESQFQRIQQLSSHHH
Procedure summary: disruptors of C. elegans POS-1 RNA interaction – biochemical, fluorescence polarization, dose response (AID 1964);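 note: purified POS-1 fused to maltose binding protein made in E. coli; potency of compounds blocking POS-1 binding to fluorescent RNA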
Calls of active or inactive are those of the source.

| Molecule | EC50 |
| --- | --- |
| COc1cccc(C2C3CN(C)CC=C3C(C#N)=C(N)C2(C#N)C#N)c1OC (stereo unspecified) | 2.18 µM (inconclusive) |
| Cc1ccc(/C=C2/C(=O)c3ccc(C(=O)O)cc3C2=O)o1 | 87.7 µM (active) |
| COc1ccc(C2=CC3=CC(=O)C(C)(O)C(=O)C3=CO2)cc1 (stereo unspecified) | 45.6 µM (active) |
| CCc1c(C)nc(SCC(=O)NNC(=O)c2ccco2)[nH]c1=O | 7.26 µM (inconclusive) |
| Cc1n[nH]c(O)c1C(c1ccc(-c2ccccc2C(=O)O)o1)c1c(C)n[nH]c1O | 148 µM (active) |
| Cc1ccc(-c2ccc(CCC(=O)O)n2-c2ccc(C(=O)O)cc2)cc1 | > 300 µM (not active) |

###

Study target: Protein RecA (Mycobacterium tuberculosis, UniProt P9WHJ3)
Procedure summary: Fluorescence Cell-Free Homogeneous Dose Retest to Identify Inhibitors of RecA-Intein Splicing Activity. [Related pubchem assays (depositor defined):AID2097, AID2223, AID489010, AID492950]
Type: functional
Calls of active or inactive are those of the source.
Classes used: t for active, f for inactive

| Compound | Label class |
| --- | --- |
| COc1ccc2[nH]c3c(Cl)ncnc3c2c1 | f |
| Cc1ccc(SCc2n[nH]c3c2C2(CCSCC2)C(C#N)=C(N)O3)cc1 | t |
| Cc1ccc(S(=O)(=O)/N=C2/C=C(C3C(=O)CC(C)(C)CC3=O)C(=O)c3ccccc32)cc1 | t |
| Cn1nc([N+](=O)[O-])c(C(C#N)c2ccccn2)c(Cl)c1=O (stereo not given) | t |
| CCOc1cc(CNc2ccc3c[nH]nc3c2)ccc1OC | t |

###

EC50 listing for selected compounds.
Study target: Peroxisome proliferator-activated receptor gamma/Nuclear receptor coactivator 1 (Homo sapiens)
Sequence (P37231 whole entry): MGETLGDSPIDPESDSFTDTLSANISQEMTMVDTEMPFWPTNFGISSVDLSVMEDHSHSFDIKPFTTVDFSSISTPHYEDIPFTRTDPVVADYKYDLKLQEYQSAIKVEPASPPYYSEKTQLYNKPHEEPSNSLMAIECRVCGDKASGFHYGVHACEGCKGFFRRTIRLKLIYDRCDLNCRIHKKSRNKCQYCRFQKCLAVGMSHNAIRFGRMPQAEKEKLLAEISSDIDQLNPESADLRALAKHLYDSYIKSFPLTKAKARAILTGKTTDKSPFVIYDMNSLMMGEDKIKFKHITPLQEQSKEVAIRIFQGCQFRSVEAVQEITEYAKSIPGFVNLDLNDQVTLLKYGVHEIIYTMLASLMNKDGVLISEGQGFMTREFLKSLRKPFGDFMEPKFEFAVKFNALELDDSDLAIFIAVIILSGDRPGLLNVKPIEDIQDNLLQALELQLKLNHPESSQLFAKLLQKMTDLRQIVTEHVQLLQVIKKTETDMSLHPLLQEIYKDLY
Sequence (Q15788 whole entry, further chain): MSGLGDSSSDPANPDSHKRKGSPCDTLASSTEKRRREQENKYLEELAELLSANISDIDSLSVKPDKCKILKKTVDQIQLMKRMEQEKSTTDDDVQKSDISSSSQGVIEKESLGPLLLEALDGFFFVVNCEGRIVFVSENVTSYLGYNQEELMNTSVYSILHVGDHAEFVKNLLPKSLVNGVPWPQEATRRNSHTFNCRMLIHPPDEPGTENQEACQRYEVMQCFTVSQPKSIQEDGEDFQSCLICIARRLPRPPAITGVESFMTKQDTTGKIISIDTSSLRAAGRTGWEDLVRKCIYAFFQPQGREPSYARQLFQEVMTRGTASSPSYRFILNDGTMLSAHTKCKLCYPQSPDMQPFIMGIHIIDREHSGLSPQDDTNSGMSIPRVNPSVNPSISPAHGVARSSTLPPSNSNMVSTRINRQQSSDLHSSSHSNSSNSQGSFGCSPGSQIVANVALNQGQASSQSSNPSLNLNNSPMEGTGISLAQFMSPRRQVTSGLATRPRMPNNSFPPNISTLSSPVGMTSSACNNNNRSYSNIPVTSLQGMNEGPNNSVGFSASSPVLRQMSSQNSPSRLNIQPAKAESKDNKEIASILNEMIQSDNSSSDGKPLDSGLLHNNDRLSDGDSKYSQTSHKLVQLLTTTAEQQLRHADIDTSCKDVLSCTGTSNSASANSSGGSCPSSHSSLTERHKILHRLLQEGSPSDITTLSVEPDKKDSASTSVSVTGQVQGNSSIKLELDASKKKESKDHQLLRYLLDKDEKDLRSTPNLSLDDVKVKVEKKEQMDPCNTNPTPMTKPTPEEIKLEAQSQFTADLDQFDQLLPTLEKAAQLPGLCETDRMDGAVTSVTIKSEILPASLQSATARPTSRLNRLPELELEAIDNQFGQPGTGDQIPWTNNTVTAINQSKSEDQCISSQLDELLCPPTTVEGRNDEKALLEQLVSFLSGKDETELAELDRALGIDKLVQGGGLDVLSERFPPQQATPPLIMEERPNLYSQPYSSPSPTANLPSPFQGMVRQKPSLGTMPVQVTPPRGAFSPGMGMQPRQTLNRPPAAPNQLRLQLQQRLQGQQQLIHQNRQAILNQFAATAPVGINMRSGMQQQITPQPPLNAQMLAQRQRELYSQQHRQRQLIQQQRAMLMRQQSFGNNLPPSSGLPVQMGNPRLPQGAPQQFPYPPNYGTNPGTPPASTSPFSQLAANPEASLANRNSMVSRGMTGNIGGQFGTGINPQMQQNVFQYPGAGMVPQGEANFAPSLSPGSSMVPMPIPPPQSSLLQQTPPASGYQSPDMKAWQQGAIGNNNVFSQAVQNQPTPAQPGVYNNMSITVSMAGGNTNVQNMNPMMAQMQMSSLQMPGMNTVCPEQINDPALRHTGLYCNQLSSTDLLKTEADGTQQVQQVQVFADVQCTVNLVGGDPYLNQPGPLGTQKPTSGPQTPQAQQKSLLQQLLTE
Procedure summary: TR-FRET dose response biochemical High Throughput Screening assay for agonists of the steroid receptor coactivator 1 (SRC-1) recruitment by the peroxisome proliferator-activated receptor gamma (PPAR gamma): non-selective agonists. [Related pubchem assays (depositor defined):AID1300, AID1808, AID504735, AID631]
Assay type: protein assay
Activity calls are given as the source filed them.

| Compound | EC50 |
| --- | --- |
| COc1ccc2nc(SC)c(C#N)cc2c1 | 14.1 µM (inactive) |
| CC(=O)/N=c1\sc2nc3ccccc3nc2n1N(C(C)=O)C(C)=O | 25.2 µM (inactive) |
| CCCCOC(=O)C(C)Nc1n[nH]c(=S)[nH]c1=O (centres undefined) | 17.3 µM (inactive) |
| Cc1onc(-c2ccccc2Cl)c1C(=O)Nc1nnc(-c2ccc(Br)cc2)s1 | > 79.4 µM (inactive) |

###

EC50 listing for selected molecules.
Study target: Heat shock factor protein 1 (Mus musculus, UniProt P38532)
Sequence (P38532 whole entry): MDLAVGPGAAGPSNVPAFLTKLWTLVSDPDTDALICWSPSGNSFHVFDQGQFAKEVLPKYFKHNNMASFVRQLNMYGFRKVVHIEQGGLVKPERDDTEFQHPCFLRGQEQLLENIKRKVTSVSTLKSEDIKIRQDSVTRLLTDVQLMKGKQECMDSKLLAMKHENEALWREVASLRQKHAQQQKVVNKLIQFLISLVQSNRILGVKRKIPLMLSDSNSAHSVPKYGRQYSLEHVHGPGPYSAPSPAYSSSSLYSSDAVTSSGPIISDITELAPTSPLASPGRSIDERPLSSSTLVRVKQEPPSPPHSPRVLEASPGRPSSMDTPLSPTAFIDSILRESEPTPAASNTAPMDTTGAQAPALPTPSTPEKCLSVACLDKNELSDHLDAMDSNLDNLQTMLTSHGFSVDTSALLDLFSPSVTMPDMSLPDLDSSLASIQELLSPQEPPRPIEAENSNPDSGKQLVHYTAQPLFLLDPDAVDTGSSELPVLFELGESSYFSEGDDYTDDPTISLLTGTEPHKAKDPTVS
Procedure summary: decrease of HSF1-responsive luciferase luminescence – cell-based, NIH3T3, dose retest, confirmation (AID 2382);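 note: NIH3T3 fibroblasts with HSF1-driven luciferase reporter stressed by proteasome inhibitor MG132; luminescence from HSF1-driven luciferase expression after 8 hours of MG132 stress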
Assay type: functional
Active and inactive are the calls of the source.

| Molecule | Study target | EC50 |
| --- | --- | --- |
| CCCC[N+]12CCC(CC1)C(C(O)(c1ccccc1)c1ccccc1)C2 (centres undefined) | Heat shock factor protein 1 (Mus musculus, UniProt P38532) | > 195 µM (not active) |
| COC(=O)C1=C(C)N(CCCC(=O)O)C(=O)NC1c1ccc(C#N)cc1 (centres undefined) | Heat shock factor protein 1 (Mus musculus, UniProt P38532) | > 195 µM (not active) |
| N#CCCn1nnc(-c2ccccc2F)n1 | Heat shock factor protein 1 (Mus musculus, UniProt P38532) | > 195 µM (not active) |
| CC(C)(C)Cc1nnc(NS(=O)(=O)c2ccc(F)cc2)s1 | Heat shock factor protein 1 (Mus musculus, UniProt P38532) | > 195 µM (not active) |
| C=CCNC1=NN=C(c2ccc3c(c2)OCCO3)CS1 | Heat shock factor protein 1 (Mus musculus, UniProt P38532) | 5.84 µM (active) |
| Cn1c(=O)c2ccccc2n(Cc2ccccc2Cl)c1=O | Heat shock factor protein 1 (Mus musculus, UniProt P38532) | > 195 µM (not active) |
| CCOC(=O)C1CCN(C(=O)COc2cc(C)c(Br)cc2C)CC1 | Heat shock factor protein 1 (Mus musculus, UniProt P38532) | > 195 µM (not active) |
| c1cncc(-c2nnc(SCc3nc4ccccc4[nH]3)o2)c1 | Heat shock factor protein 1 (Mus musculus, UniProt P38532) | 126 µM (active) |
| Cc1ccc(NC(=O)[C@@H](C)NC(=O)[C@@H]2Cc3ccccc3CN2)cc1 | Heat shock factor protein 1 (Mus musculus, UniProt P38532) | > 195 µM (not active) |
